Quick list: soluble fraction (log2) per entry.
test: soluble fraction after stress (log2 fold change); higher = more stays soluble; pooled small domains, quantitative proteomics; conditions: stress: 50 degC
Give the figure by itself; no unit, no explanation.

Worked examples, 3 sequences total:
INSERT INTO results (entrysequence, valuemeasured) VALUES
  ('HMPIDIEPVLQWIRDNSIDGIGPARSMYHSAAAAAGLPSYSSLQLRKWTWPLLLDAAGVQRR', -0.433),
  ('HMNGAVAEQARKQLMAALKASEFIAEEKLDEWLDALALPEDKRTAIVDAVDELDYEEAISELEN', 0.0153),
  ('HMFEPLTDREREVLQALADGLSDKEIAERLYISPATVRTHITAILGKLDANSRLQAVVVAARHNLVTL', -0.0803);

Query: soluble fraction (log2); subject: HMEVAASEQRDNLWALARRVLSGEQYDVLYLRYVEDFSVAQIADVVGKTQTHVKVLLFRGRNNLGSRLRS
0.199
